System under test: Axl (UniProt P30530)
Sequence (P30530 26-451 limits assumed): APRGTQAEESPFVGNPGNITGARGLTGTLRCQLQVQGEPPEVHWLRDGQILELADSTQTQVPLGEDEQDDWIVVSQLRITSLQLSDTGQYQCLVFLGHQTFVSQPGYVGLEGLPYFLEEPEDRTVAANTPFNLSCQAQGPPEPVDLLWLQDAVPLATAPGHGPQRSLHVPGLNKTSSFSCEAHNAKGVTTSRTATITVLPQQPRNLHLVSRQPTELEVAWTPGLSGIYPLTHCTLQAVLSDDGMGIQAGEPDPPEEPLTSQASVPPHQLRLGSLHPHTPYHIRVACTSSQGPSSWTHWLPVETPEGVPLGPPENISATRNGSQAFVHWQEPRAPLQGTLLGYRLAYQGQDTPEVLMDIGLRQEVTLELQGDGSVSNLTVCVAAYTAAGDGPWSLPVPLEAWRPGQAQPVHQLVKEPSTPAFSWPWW
Procedure summary: ELISA, 1:3 dilution
Please provide measured Affinity ELISA CPE mutant ratio (1:3, pH 6.0/7.4) for the entries that follow.
When you answer, write just the number.

Value of Affinity ELISA CPE mutant ratio (1:3, pH 6.0/7.4) reported for the binder HC-A106G (antibody, V domains shown) VH: EVQLVQSGAEVKKPGATVKISCKVSGYSFTGHTMNWIRQPPGKGLEWIGLIKPSNGGTSYNQKFKGRVTISADKSISTAYLQWSSLKASDTAMYYCAHGHYESYFGMDYWGQGTLVTVSS VL: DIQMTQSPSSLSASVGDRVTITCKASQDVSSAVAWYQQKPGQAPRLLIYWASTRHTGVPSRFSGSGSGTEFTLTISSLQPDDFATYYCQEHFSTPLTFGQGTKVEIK is 1.52

Value of Affinity ELISA CPE mutant ratio (1:3, pH 6.0/7.4) reported for the binder LC-F092D (antibody, V domains shown) VH: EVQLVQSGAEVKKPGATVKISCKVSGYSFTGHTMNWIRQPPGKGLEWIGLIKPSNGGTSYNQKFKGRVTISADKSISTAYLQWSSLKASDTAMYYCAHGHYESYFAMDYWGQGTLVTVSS VL: DIQMTQSPSSLSASVGDRVTITCKASQDVSSAVAWYQQKPGQAPRLLIYWASTRHTGVPSRFSGSGSGTEFTLTISSLQPDDFATYYCQEHDSTPLTFGQGTKVEIK is 2.97

Value of Affinity ELISA CPE mutant ratio (1:3, pH 6.0/7.4) reported for the binder LC-P095S (antibody, V domains shown) VH: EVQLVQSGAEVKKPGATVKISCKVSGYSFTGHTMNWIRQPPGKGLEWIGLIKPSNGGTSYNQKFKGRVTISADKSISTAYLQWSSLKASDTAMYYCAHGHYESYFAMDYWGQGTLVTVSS VL: DIQMTQSPSSLSASVGDRVTITCKASQDVSSAVAWYQQKPGQAPRLLIYWASTRHTGVPSRFSGSGSGTEFTLTISSLQPDDFATYYCQEHFSTSLTFGQGTKVEIK is 2.84

Value of Affinity ELISA CPE mutant ratio (1:3, pH 6.0/7.4) reported for the binder HC-S103D (antibody, V domains shown) VH: EVQLVQSGAEVKKPGATVKISCKVSGYSFTGHTMNWIRQPPGKGLEWIGLIKPSNGGTSYNQKFKGRVTISADKSISTAYLQWSSLKASDTAMYYCAHGHYEDYFAMDYWGQGTLVTVSS VL: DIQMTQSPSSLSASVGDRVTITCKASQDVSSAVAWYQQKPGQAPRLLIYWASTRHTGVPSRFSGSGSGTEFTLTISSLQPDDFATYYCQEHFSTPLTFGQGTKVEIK is 4.24

Value of Affinity ELISA CPE mutant ratio (1:3, pH 6.0/7.4) reported for the binder LC-T094C (antibody, V domains shown) VH: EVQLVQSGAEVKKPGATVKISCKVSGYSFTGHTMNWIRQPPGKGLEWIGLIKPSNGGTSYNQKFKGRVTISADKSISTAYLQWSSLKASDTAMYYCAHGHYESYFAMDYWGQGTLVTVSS VL: DIQMTQSPSSLSASVGDRVTITCKASQDVSSAVAWYQQKPGQAPRLLIYWASTRHTGVPSRFSGSGSGTEFTLTISSLQPDDFATYYCQEHFSCPLTFGQGTKVEIK is 1.42

Value of Affinity ELISA CPE mutant ratio (1:3, pH 6.0/7.4) reported for the binder HC-Y104E (antibody, V domains shown) VH: EVQLVQSGAEVKKPGATVKISCKVSGYSFTGHTMNWIRQPPGKGLEWIGLIKPSNGGTSYNQKFKGRVTISADKSISTAYLQWSSLKASDTAMYYCAHGHYESEFAMDYWGQGTLVTVSS VL: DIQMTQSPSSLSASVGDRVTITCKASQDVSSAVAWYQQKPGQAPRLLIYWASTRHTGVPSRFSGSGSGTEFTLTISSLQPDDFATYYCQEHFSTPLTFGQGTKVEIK is 1.32

Value of Affinity ELISA CPE mutant ratio (1:3, pH 6.0/7.4) reported for the binder HC-E102H (antibody, V domains shown) VH: EVQLVQSGAEVKKPGATVKISCKVSGYSFTGHTMNWIRQPPGKGLEWIGLIKPSNGGTSYNQKFKGRVTISADKSISTAYLQWSSLKASDTAMYYCAHGHYHSYFAMDYWGQGTLVTVSS VL: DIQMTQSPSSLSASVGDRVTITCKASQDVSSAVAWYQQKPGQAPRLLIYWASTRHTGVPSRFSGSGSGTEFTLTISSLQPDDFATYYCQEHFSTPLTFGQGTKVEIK is 2.08

Value of Affinity ELISA CPE mutant ratio (1:3, pH 6.0/7.4) reported for the binder HC-E102V (antibody, V domains shown) VH: EVQLVQSGAEVKKPGATVKISCKVSGYSFTGHTMNWIRQPPGKGLEWIGLIKPSNGGTSYNQKFKGRVTISADKSISTAYLQWSSLKASDTAMYYCAHGHYVSYFAMDYWGQGTLVTVSS VL: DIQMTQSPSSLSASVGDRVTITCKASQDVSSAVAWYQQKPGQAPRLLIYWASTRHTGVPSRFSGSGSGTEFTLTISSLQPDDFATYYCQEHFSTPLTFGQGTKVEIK is 1.93

Value of Affinity ELISA CPE mutant ratio (1:3, pH 6.0/7.4) reported for the binder HC-E102N (antibody, V domains shown) VH: EVQLVQSGAEVKKPGATVKISCKVSGYSFTGHTMNWIRQPPGKGLEWIGLIKPSNGGTSYNQKFKGRVTISADKSISTAYLQWSSLKASDTAMYYCAHGHYNSYFAMDYWGQGTLVTVSS VL: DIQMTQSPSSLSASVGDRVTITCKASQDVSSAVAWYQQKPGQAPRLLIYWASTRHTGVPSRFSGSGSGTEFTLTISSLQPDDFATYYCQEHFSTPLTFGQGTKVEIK is 1.52

Value of Affinity ELISA CPE mutant ratio (1:3, pH 6.0/7.4) reported for the binder HC-A106L (antibody, V domains shown) VH: EVQLVQSGAEVKKPGATVKISCKVSGYSFTGHTMNWIRQPPGKGLEWIGLIKPSNGGTSYNQKFKGRVTISADKSISTAYLQWSSLKASDTAMYYCAHGHYESYFLMDYWGQGTLVTVSS VL: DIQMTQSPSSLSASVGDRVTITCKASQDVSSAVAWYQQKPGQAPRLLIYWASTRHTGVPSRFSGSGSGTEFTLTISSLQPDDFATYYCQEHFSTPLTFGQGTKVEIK is 21.5

The measurements presented in this section are drawn from patent US20250276075A1.
